measurementTarget: Rat NPY5 receptor (Rattus norvegicus, UniProt Q63634)
Sequence (Q63634 whole entry): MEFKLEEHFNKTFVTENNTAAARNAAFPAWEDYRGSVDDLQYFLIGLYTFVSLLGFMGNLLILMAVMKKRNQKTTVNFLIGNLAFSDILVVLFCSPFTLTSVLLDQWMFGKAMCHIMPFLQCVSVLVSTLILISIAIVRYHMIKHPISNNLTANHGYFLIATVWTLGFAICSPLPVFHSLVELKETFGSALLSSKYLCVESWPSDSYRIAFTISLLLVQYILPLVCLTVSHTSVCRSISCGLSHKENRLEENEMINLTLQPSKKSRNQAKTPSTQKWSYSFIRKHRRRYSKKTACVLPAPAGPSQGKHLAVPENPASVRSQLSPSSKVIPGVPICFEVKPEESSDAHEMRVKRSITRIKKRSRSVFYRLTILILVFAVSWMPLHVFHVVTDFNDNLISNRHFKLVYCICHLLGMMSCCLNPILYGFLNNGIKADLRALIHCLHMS
testDescription: Rat NPY5 receptor binding assay ([125I]PYY, membrane protein)
settings: [125I]PYY, read-out: rNPY5 IC50
Counter-ions that a name gives are not always drawn.
Overview of recorded IC50 for various compounds
experimentalReadout: IC50 (nM)

[[record]]
compound = "Cl.O=C(CN1CCC(n2c(=O)[nH]c3ccccc32)CC1)Nc1ccc(C(=O)C(=O)c2ccccc2)cc1 [Compound 265, hydrochloride]"
measurementtarget = "Rat NPY5 receptor (Rattus norvegicus, UniProt Q63634)"
experimentalreadout = "IC50"
unitlabel = "nM"
inequalitysign = "="
datavalue = 5

[[record]]
compound = "CCNC1(C(N)=O)CCN(CC(=O)Nc2ccc(C3CCCCC3)cc2)CC1.O=C(O)C(=O)O [Compound 302]"
measurementtarget = "Rat NPY5 receptor (Rattus norvegicus, UniProt Q63634)"
experimentalreadout = "IC50"
unitlabel = "nM"
inequalitysign = "="
datavalue = 6

[[record]]
compound = "O=C(CN1CCC(n2c(=O)[nH]c3ccccc32)CC1)Nc1cccc(C(=O)c2ccccc2)c1 [Compound 268]"
measurementtarget = "Rat NPY5 receptor (Rattus norvegicus, UniProt Q63634)"
experimentalreadout = "IC50"
unitlabel = "nM"
inequalitysign = "="
datavalue = 120

[[record]]
compound = "Cl.O=C(CN1CCC(n2c(=O)[nH]c3ccccc32)CC1)NCC1CCCCC1 [Compound 282, hydrochloride]"
measurementtarget = "Rat NPY5 receptor (Rattus norvegicus, UniProt Q63634)"
experimentalreadout = "IC50"
unitlabel = "nM"
inequalitysign = "="
datavalue = 313

[[record]]
compound = "COCCNC(=O)CN1CCC(n2c(=O)[nH]c3ccccc32)CC1 [Compound 284]"
measurementtarget = "Rat NPY5 receptor (Rattus norvegicus, UniProt Q63634)"
experimentalreadout = "IC50"
unitlabel = "nM"
inequalitysign = ">"
datavalue = 10000

[[record]]
compound = "COc1ccc(NC(=O)CN2CCC(n3c(=O)[nH]c4ccccc43)CC2)cc1 [Compound 361, reference compound]"
measurementtarget = "Rat NPY5 receptor (Rattus norvegicus, UniProt Q63634)"
experimentalreadout = "IC50"
unitlabel = "nM"
inequalitysign = "="
datavalue = 539

[[record]]
compound = "O=C(CN1CCC(n2c(=O)[nH]c3ccccc32)CC1)Nc1ccc(N=Nc2ccccc2)cc1 [Compound 349, reference compound]"
measurementtarget = "Rat NPY5 receptor (Rattus norvegicus, UniProt Q63634)"
experimentalreadout = "IC50"
unitlabel = "nM"
inequalitysign = "="
datavalue = 165

[[record]]
compound = "CC(C(=O)Nc1ccc(C(C)(C)C)cc1)N1CCC(n2c(=O)[nH]c3ccccc32)CC1 (stereo not drawn) [Compound 279]"
measurementtarget = "Rat NPY5 receptor (Rattus norvegicus, UniProt Q63634)"
experimentalreadout = "IC50"
unitlabel = "nM"
inequalitysign = "="
datavalue = 68

[[record]]
compound = "O=C(CN1CCC(n2c(=O)[nH]c3ccccc32)CC1)Nc1ccc(-c2ccccc2)cc1 [Compound 275]"
measurementtarget = "Rat NPY5 receptor (Rattus norvegicus, UniProt Q63634)"
experimentalreadout = "IC50"
unitlabel = "nM"
inequalitysign = "="
datavalue = 19

[[record]]
compound = "O=C(CN1CCC(n2c(=O)[nH]c3ccccc32)CC1)Nc1ccccc1-c1ccccc1 [Compound 324, hydrochloride]"
measurementtarget = "Rat NPY5 receptor (Rattus norvegicus, UniProt Q63634)"
experimentalreadout = "IC50"
unitlabel = "nM"
inequalitysign = "="
datavalue = 690

[[record]]
compound = "Cl.N#CC(c1ccccc1)C1CCN(CC(=O)Nc2ccc(C3CCCCC3)cc2)CC1 (stereo not drawn) [Compound 300, hydrochloride]"
measurementtarget = "Rat NPY5 receptor (Rattus norvegicus, UniProt Q63634)"
experimentalreadout = "IC50"
unitlabel = "nM"
inequalitysign = "="
datavalue = 13

[[record]]
compound = "O=C(CN1CCC(n2c(=O)[nH]c3ccccc32)CC1)Nc1ccc(Br)c(Cl)c1 [Compound 342, reference compound]"
measurementtarget = "Rat NPY5 receptor (Rattus norvegicus, UniProt Q63634)"
experimentalreadout = "IC50"
unitlabel = "nM"
inequalitysign = "="
datavalue = 370

